- Tested on: SF-268 CNS
- procedureSummary: NCI-60 one-dose screen, 48 h
- experimentalSetup: 10 µM unless noted
This is part of a sample that, as a whole, favours compounds with a hit. Of some 83,000 tested, about 20% had one in any assay. Active and inactive are the calls of the source. Rule for the calls: active = growth percent below 10; inactive = the rest.
Field 'call' accepts T for active, F for inactive

* CC[C@H]1CN2CCc3cc(OC)c(OC)cc3C2C[C@@H]1CC1NCCc2cc(OC)c(OC)cc21 (some centres not stated) | T
* Cc1cc(C(=O)Nc2ccc3cc(CN4CCOCC4)ccc3n2)c(C)n1-c1ccccc1 | F
* O=C(C(=O)c1cc(Br)ccc1O)c1cc(Br)ccc1O | F

Any idea what this test logged for "COc1c(O)cc2c(c1CC=C(C)C)OC(=O)c1c(cc(O)c(CC=C(C)C)c1O)O2" ?
F

Please state the recorded outcome for this compound: "COc1ccc2cc(-c3nc4ccccc4[nH]3)c(=O)oc2c1"
F

Field: outcome | Entry: CCC(C)C1NC(=O)C(CCNCS(=O)(=O)O)NC(=O)C(NC(=O)C(CCNCS(=O)(=O)O)NC(=O)C(NC(=O)C(CCNCS(=O)(=O)O)NC(=O)CCCCC(C)C)C(C)O)CCNC(=O)C(C(C)O)NC(=O)C(CCNCS(=O)(=O)O)NC(=O)C(CCNCS(=O)(=O)O)NC(=O)C(C(C)CC)NC1=O (configuration not stated)
F

Dear all, I need the recorded test outcome for NC(=O)NS(=O)(=O)c1ccc(N2N=C(C(F)(F)F)CC2c2cc(C(F)(F)F)cc(C(F)(F)F)c2)cc1 (configuration not stated) , thank you.
F

Called result for CN(C)c1ncnc2c1ncn2C1CCCCO1 (configuration not stated)
F

Give the logged outcome of this assay for the following compound: "COc1c(Br)cc(C(c2cc(Br)c(OC)c(Br)c2)c2ccccc2C(=O)O)cc1Br"
F

Each compound tested received a call. Report the one for C=C1CCC2C3(C)COC(c4ccccc4)OC3CCC2(C)C1C/C=C1/C(=O)OCC1OC(C)=O (configuration not stated) .
F

Which outcome was entered for the compound "COc1cc(/C=C/C(=O)CC(=O)/C=C/c2ccc(OC(=O)CCNC34CC5CC(CC(C5)C3)C4)c(OC)c2)ccc1OC(=O)CCNC12CC3CC(CC(C3)C1)C2" in this test?
F

// outcome(item) with item = "Oc1ccc(/C=N/Nc2nc3ccccc3s2)c(O)c1"
F

====

- Tested on: SK-MEL-5 melanoma
- procedureSummary: NCI-60 one-dose screen, 48 h
- experimentalSetup: 10 µM unless noted
This is part of a sample that, as a whole, favours compounds with a hit. Of some 83,000 tested, about 20% had one in any assay. Calls of active or inactive are those of the source. Rule for the calls: active = growth percent below 10; inactive = the rest.
Write down one outcome, taken from 1 for active, 0 for inactive

Example results:
* COc1ccc(C2CC(c3ccc(Nc4ccnc5cc(Cl)ccc45)cc3)=NN2C(C)=O)cc1 (stereo not drawn) | 1
* Cn1cnc([N+](=O)[O-])c1Sc1nc(N)nc2nc[nH]c12 | 0
* Fc1ccccc1C1c2ccccc2-c2nccn21 (stereo not drawn) | 0
* O=[N+]([O-])c1ccc(NS(=O)(=O)c2ccc(Cl)c(Cl)c2)cc1 | 0
* CNc1nc(NC2CCCC2)nc(Sc2ccc(OC)cc2)n1 | 0

What classification did Cc1ccc(C2=NNC(c3sc(Cl)nc3Cl)C2)cc1 (stereo not drawn) end up with in this test?
0

Test call for this molecule, please: N#CC1c2ccccc2C=CN1C(=O)N(c1ccccc1)c1ccccc1 (stereo not drawn)
0

Which result was noted for this molecule in the test: C=C1CCC2C3(C)COC(c4ccccc4)OC3CCC2(C)C1C/C=C1/C(=O)OCC1OC(C)=O (stereo not drawn)
0

For "C/C(=C\CCc1ccoc1)CC/C=C(\C)CCCN1CCSCC1" , which call appears in the assay record?
0

====

- Tested on: HOP-92 NSCLC
- procedureSummary: NCI-60 one-dose screen, 48 h (100 = growth as untreated, 0 = no growth, -100 = all killed)
- experimentalSetup: 10 µM unless noted
Compounds without any hit were thinned out: in the full panel of roughly 83,000, 20% have a hit.
parameterMeasured: growth (%)
Give bare numbers, in %.

Please review the following examples before continuing.
- O=C1/C=C/[C@@H](O)[C@@H]2C[C@@H](O)C[C@H]2/C=C/CCC[C@H](CO)O1: 58.3
- Cc1sc2nc(NCc3ccccc3)[nH]c(=O)c2c1C: 69.4
- COc1cc(/C=C/C(=O)C(C(=O)/C=C/c2ccc(OC(=O)CCNc3nnc(C)s3)c(OC)c2)C(=O)CCNc2nnc(C)s2)ccc1OC(=O)CCNc1nnc(C)s1: -16.4
- O=C(Nc1cccc(Cl)c1)Nc1cccc(Cl)c1: 87.6
- CCOc1cc(/C=C/C(=O)CC(=O)/C=C/c2ccc(OC(=O)CNCCN(CC)CC)c(OCC)c2)ccc1OC(=O)CNCCN(CC)CC: -3.28
- CC(C)CC1NC(=O)C(CCCN)NC(=O)C(C(C)C)NC(=O)C2CCCN2C(=O)C(Cc2ccccc2)NC(=O)C(CC(C)C)NC(=O)C(CCCN)NC(=O)C(C(C)C)NC(=O)C2CCCN2C(=O)C(Cc2ccccc2)NC1=O (configuration not stated): -56.7

Lab note: measured growth of "C[C@]12CCC(=O)C=C1CC[C@H]1[C@@H]3C[C@@H](O)[C@](O)(C(=O)CO)[C@@]3(C)C[C@H](O)[C@@]12F" was 80.3

====

- Test system: SF-268 CNS
- procedureSummary: NCI-60 one-dose screen, 48 h
- experimentalSetup: 10 µM unless noted
About 83,000 compounds went through this panel and 20% of them were active in at least one assay; those are over-represented in the sample as a whole. Active and inactive are the calls of the source. How the source made its calls: active means growth percent below 10; inactive means the rest.
One label from this list, please: class 1 for active, class 0 for inactive

Field: example entries. Status: answers known.
* NS(=O)(=O)N(c1cc(C(F)(F)F)cc(C(F)(F)F)c1)C1CCN(Cc2ccc(C(F)(F)F)cc2)CC1 | class 0
* COc1cc(-c2nc3sc4c(c3c(=O)[nH]2)CCCCCC4)cc(OC)c1OC | class 0
* Fc1ccc(-c2nn3c(-c4cc(C(F)(F)F)cc(C(F)(F)F)c4)nnc3s2)cc1 | class 0
* COc1cc2c(cc1OC)C(=O)/C(=C/c1cccc(OCC(=O)c3ccccc3)c1)C2 | class 0
* Cc1csc(C#Cc2cncc(O)c2)n1 | class 0
* O=C(/C=C/c1ccc([N+](=O)[O-])cc1)c1ccc2c3c(cccc13)CC2 | class 0
* N=C1c2nc3n(c2C(=O)c2nc4n(c21)CCCCC4)CCCCC3 | class 0
* COc1cc(/C=C/c2cc(/C=C/c3ccc(O)c(OC)c3)n(C(=O)Cc3ccccc3)n2)ccc1O | class 1

Each molecule tested received a call. Report the one for "N#Cc1c(NC(=O)c2ccco2)[n+]([O-])c2cc(Cl)c(Cl)cc2[n+]1[O-]" .
class 0

So what was the verdict on "CCSc1nc(-c2ccc(F)cc2)c(C#N)c(=O)[nH]1" in this test?
class 0

Recorded call for "CCCCCc1c(C)[nH]c(/C=C2\N=C(c3ccc[nH]3)C=C2Oc2ccccc2)c1C" ?
class 1

Which outcome was entered for the molecule "C/C(=C\CCc1ccoc1)CC/C=C(\C)CCCN1CCOCC1" in this test?
class 0

I would be grateful if you could indicate the recorded call for CN1C(=O)C(C2=NN(C=O)C(c3ccc(F)cc3)C2)C(=O)N(C)C1=O (stereo not given) .
class 0

I'd appreciate the recorded outcome for "O=[N+]([O-])c1cc([N+](=O)[O-])c(N2CCCC2)cc1NN=C(c1ccc(O)cc1)c1ccc(O)cc1" from this test.
class 0

Entry "COc1cc(/C=N/NC(=O)c2ccc(C(F)(F)F)nc2Nc2cc(Cl)ccc2C)cc(OC)c1OC" : call = ?
class 0

====

- Test system: EKVX NSCLC
- procedureSummary: NCI-60 one-dose screen, 48 h
- experimentalSetup: 10 µM unless noted
About 83,000 compounds went through this panel and 20% of them were active in at least one assay; those are over-represented in the sample as a whole. Active and inactive are the calls of the source. How the source made its calls: active means growth percent below 10; inactive means the rest.
Pick from 1.0 for active, 0.0 for inactive when you respond.

Entry "O=C(/C=C/c1cccc(Nc2ccnc3cc(Cl)ccc23)c1)c1ccc(Cl)cc1" : call = ?
0.0

Recorded call for "COc1cc(/C=N/NC(=O)c2ccc(C(F)(F)F)nc2Nc2cc(Cl)ccc2C)cc(OC)c1OC" ?
0.0

What classification did "Cc1ccc(C(=O)Cc2ccccc2)c(O)c1" end up with in this test?
0.0

Please indicate how the test categorized "Clc1ccc2nc(CI)c(CI)nc2c1" .
0.0

Lab log entry: "N#Cc1c(-c2ccccc2)cc(-c2ccccc2)n(CCCCC(=O)O)c1=O" — outcome as called in the assay?
0.0

Answer briefly: the call reported for COc1cc(C2CC(C3C(=O)N(C)C(=O)N(C)C3=O)=NN2C=O)cc(OC)c1OC (configuration not stated) in this assay.
0.0

What is the recorded call for this molecule in the test? "CCc1ccc(-c2nc(SCC(=O)NC3CCCCC3)n[nH]2)cc1"
0.0

Record request — test call for "COCCCNS(=O)(=O)c1ncnc2nc[nH]c12"
0.0

Test call for this molecule, please: "C/C=C(/C(=C/C)c1ccc(O)cc1)c1ccc(O)cc1"
0.0

Kindly provide the recorded test outcome for the following molecule: "O=C(N/N=C/c1cccc([N+](=O)[O-])c1)c1ccc(Br)o1"
0.0

Test call for this molecule, please: "COc1cc(NC(=O)NCc2ccco2)ccc1-c1ccc(NC(=O)NCc2ccco2)cc1OC"
0.0

What call does the record list for "COc1ccc(Cl)cc1Nc1nc(C(F)(F)F)ccc1C(=O)N/N=C/c1c(Cl)cccc1Cl" ?
0.0

Which outcome was entered for the molecule CC(NC(=O)Oc1cccc2ccccc12)c1ccccc1 (configuration not stated) in this test?
0.0

Record request — test call for "COc1cnc2c(c1)C(=O)c1c-2n(CCCN2CCC(O)CC2)c(=O)c2cc(F)ccc12"
1.0

Please indicate how the test categorized "CCCn1c(N)c(C(=O)CNc2ccc(I)cc2)c(=O)[nH]c1=O" .
0.0

Answer briefly: the call reported for "COc1cc(/C=C/C(=O)c2c(C)n([O-])c3ccc(Cl)cc3[n+]2=O)cc(OC)c1OC" in this assay.
0.0

State the result this test recorded for "CCOc1cc(/C=C/C(=O)CC(=O)/C=C/c2ccc(OC(=O)CNCCN(CC)CC)c(OCC)c2)ccc1OC(=O)CNCCN(CC)CC" .
1.0
